TGT: SRPK1 (Homo sapiens (Human))
Sequence (Q96SB4 whole entry): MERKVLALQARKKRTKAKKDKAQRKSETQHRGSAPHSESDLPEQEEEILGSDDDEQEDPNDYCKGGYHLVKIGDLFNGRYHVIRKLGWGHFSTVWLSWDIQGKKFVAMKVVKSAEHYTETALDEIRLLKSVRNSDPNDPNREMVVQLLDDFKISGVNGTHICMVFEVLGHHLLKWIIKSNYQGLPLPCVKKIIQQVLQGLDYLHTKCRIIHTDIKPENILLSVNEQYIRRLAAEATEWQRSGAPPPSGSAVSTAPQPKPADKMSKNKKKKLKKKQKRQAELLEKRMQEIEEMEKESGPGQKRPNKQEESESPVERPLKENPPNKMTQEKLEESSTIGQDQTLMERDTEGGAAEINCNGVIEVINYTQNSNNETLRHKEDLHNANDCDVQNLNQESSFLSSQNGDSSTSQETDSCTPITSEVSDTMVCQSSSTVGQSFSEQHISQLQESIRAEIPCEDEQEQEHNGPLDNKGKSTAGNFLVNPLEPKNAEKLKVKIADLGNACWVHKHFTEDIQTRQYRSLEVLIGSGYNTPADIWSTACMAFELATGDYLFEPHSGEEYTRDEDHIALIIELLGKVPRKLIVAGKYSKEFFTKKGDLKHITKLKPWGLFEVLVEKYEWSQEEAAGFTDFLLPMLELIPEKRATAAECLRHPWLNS
ASSAY_OVERVIEW: KINATIV assay
Format: cell-based
MEASUREMENT_PARAMETERS: 1 μM, 90 minutes, BCWM.1 cells
RECORDED_METRIC: % change of MS signal compared to control sample (%)
Unit % implied. Number only.

Solved cases below.
C=CC(=O)N1CCCCC(Nc2nccc(Nc3ncc(C(=O)Nc4c(C)cccc4C)s3)n2)C1 (stereo not shown)
1.2
C=CC(=O)N1CCC(Cn2ccc(Nc3ncc(C(=O)Nc4c(C)cccc4Cl)s3)n2)C1 (stereo not shown)
−4.7
C=CC(=O)N1CCC(CNc2nccc(Nc3ncc(C(=O)Nc4c(C)cccc4C)s3)n2)C1 (racemic)
−19.5

Moving on to another compound below.
[in] What value of % change of MS signal compared to control sample has been reported for the following compound? C=CC(=O)N1CC[C@@H](Nc2nccc(Nc3ncc(C(=O)Nc4c(C)cccc4C)s3)n2)C1
[out] −2.1

----------
System: OCI-Ly19
ASSAY_OVERVIEW: CellTiter-Glo Luminescent cell viability assay
Type: cell-based
MEASUREMENT_PARAMETERS: cell survival, 72 hours
RECORDED_METRIC: EC50 (µM)
Provide only the numeric value, understood in µM.

[in] I'd like to know its EC50. The molecule in question is Cn1cc(Nc2nc3ccc(Oc4ccccc4)nc3s2)cn1
[out] 9.52

[in] Given the entry C=CC(=O)N1CCC(CNc2nccc(Nc3ncc(C(=O)Nc4c(C)cccc4C)s3)n2)C1 (stereo not shown) , report its measured EC50.
[out] 3.77

[in] # input molecule: C=CC(=O)N1CC[C@H](Nc2nccc(Nc3ncc(C(=O)Nc4c(C)cccc4C)s3)n2)C1 ; wanted: its EC50
[out] 13

[in] What value of EC50 has been recorded for this entry: C=CC(=O)N1CC[C@H](Nc2nccc(Nc3ncc(C(=O)Nc4c(C)cccc4Cl)s3)n2)C1
[out] 5.7

----------
Entries and their measured % change of MS signal compared to control sample follow.
System: IKKe, TBK1
ASSAY_OVERVIEW: KINATIV assay
Format: cell-based
MEASUREMENT_PARAMETERS: 1 μM, 90 minutes, BCWM.1 cells
I'd appreciate it if you included the unit after the number.

Some molecules with known % change of MS signal compared to control sample results, for comparison:
C=CC(=O)N1CCCCC(Nc2nccc(Nc3ncc(C(=O)Nc4c(C)cccc4C)s3)n2)C1 (stereo not shown)
−10.7%
C=CC(=O)N1CCC(CNc2nccc(Nc3ncc(C(=O)Nc4c(C)cccc4C)s3)n2)C1 (racemic)
5.5%
C=CC(=O)N1CC[C@@H](Nc2nccc(Nc3ncc(C(=O)Nc4c(C)cccc4C)s3)n2)C1
−38.7%

Okay, now this molecule:
[in] // map C=CC(=O)N1CCC(Cn2ccc(Nc3ncc(C(=O)Nc4c(C)cccc4Cl)s3)n2)C1 (stereo not shown) to recorded % change of MS signal compared to control sample (system: IKKe, TBK1)
[out] −27.2%

----------
TGT: MAP3K6 (Homo sapiens (Human), UniProt O95382)
Sequence (O95382 whole entry): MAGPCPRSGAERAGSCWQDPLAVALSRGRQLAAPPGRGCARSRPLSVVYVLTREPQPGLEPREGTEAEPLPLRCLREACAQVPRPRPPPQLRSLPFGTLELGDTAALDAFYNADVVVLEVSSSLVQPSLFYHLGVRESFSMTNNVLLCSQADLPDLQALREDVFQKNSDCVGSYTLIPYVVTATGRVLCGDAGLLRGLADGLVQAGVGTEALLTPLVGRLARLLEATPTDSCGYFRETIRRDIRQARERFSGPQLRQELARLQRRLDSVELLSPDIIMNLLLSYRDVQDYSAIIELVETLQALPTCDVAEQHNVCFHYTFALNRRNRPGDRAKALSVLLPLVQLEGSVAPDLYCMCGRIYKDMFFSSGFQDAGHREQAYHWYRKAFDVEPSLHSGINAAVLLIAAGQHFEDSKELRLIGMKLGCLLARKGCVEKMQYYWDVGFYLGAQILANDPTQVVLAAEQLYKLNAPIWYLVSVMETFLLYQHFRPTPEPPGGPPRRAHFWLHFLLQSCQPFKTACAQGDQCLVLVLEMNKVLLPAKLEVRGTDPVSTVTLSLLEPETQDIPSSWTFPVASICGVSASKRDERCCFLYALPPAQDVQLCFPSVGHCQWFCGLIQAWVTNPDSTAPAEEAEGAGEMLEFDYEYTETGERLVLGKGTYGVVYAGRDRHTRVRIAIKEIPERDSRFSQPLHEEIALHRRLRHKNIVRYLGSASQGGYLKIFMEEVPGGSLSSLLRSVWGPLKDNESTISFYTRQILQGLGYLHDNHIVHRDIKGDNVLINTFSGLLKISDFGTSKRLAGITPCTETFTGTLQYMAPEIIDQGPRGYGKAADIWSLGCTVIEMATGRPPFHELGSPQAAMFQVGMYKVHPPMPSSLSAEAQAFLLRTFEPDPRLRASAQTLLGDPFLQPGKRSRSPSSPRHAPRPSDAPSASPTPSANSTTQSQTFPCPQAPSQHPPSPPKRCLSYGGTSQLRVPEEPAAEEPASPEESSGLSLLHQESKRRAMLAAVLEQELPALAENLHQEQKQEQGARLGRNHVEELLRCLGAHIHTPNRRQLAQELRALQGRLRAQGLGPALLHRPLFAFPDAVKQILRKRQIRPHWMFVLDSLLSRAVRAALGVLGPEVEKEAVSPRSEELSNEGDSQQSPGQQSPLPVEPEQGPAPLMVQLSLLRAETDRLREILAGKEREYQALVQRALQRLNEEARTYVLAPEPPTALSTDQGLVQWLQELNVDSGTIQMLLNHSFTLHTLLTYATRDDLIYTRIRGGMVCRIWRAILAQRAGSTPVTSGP
ASSAY_OVERVIEW: KINATIV assay
Format: cell-based
MEASUREMENT_PARAMETERS: 1 μM, 90 minutes, BCWM.1 cells
The entries below come with measured % change of MS signal compared to control sample values attached.
Answer format: numeric, % implied, no suffix.

C=CC(=O)N1CCC(Cn2ccc(Nc3ncc(C(=O)Nc4c(C)cccc4Cl)s3)n2)C1 (stereo not shown) [II-1]
18.9
C=CC(=O)N1CCCCC(Nc2nccc(Nc3ncc(C(=O)Nc4c(C)cccc4C)s3)n2)C1 (stereo not shown) [Example I-7]
−21.3
C=CC(=O)N1CCC(CNc2nccc(Nc3ncc(C(=O)Nc4c(C)cccc4C)s3)n2)C1 (racemic) [Example I-8]
−8.1

[in] Please look up its % change of MS signal compared to control sample: C=CC(=O)N1CC[C@@H](Nc2nccc(Nc3ncc(C(=O)Nc4c(C)cccc4C)s3)n2)C1 [Example I-4]
[out] 10.9
